assay: soluble on expression in E. coli; label from the status in PepcDB or PDB records
readout-kind: soluble on expression in E. coli

MAKTLKTLYQCTECGGTSPKWQGKCPHCGEWNTLQESLAAPEPKNARFQSWAADTSTVQSLSAVTATEVPRNPTGMGELDRVLGGGLVDGAVILLGGDPGIGKSTLLLQTIAKMAQSRKVLYVSGEESAQQVALRAQRLELPTDGVNLLAEIRMEAIQAALKQHQPEVVVIDSIQTMYSDQITSAPGSVSQVRECAAQLTRMAKQMGIAMILVGHVTKDGAIAGPRVLEHMVDTVLYFEGDQHSNYRMIRAIKNRFGAANELGVFAMTENGLKGVSNPSAIFLASYRDDTPGSCVLVTQEGSRPLLVEIQALVDDAHGFTPKRLTVGLEQNRLAMLLAVLNRHGGIACFDQDVFLNAVGGV :: not soluble
HFVKSVEDKAISVTLAQGNIEQNLKWDPNYFYSTLAIYQKLITENLGKTDLIILPESALPTLENAITPFFEGLERAAKETKTEIMVGTVFQDTKSGKLLNSIMTAGNPDFPYQPNTQNRYNKHHLVPFGEYVPLESILRPLNSVFNLPMSAFQSGEAVQPSLIAKKRAFSPAICYEIIFGEQVRQNLKQDTDYLLTLSNDAWFGDSIGPWQHLQMARMRALELGKPLIRATNTGISVFVDAQGKVLAQAPQFIETTLTYKIAPAEGKTPYSVLGNMPLYALSLLFLLLHS :: not soluble
